Reported melting point values follow for various compounds

Known melting point results, listed for orientation:
>>> value_observed("Cc1cc(=O)n(C)nc1-c1ccc(NN=Cc2ccc(O)cc2O)cc1")
"266 to 269 °C"
>>> value_observed("CC1CC(=O)NN=C1c1ccc(C(=NN)c2ccc(O)c(C(=O)O)c2O)cc1 (stereo not drawn)")
"215 to 218 °C"
>>> value_observed("CC1CC(=O)NN=C1c1ccc(NN=Cc2ccccc2O)cc1 (stereo not drawn)")
"265 to 268 °C"
>>> value_observed("CC1CC(=O)NN=C1c1ccc(NN=Cc2cccc(O)c2O)cc1 (stereo not drawn)")
"245 to 247 °C"
>>> value_observed("CC1CC(=O)NN=C1c1ccc(NN=Cc2ccc([N+](=O)[O-])cc2[N+](=O)[O-])cc1 (stereo not drawn)")
"278 to 280 °C"

Query compound follows.
The compound identified as CC(=O)Nc1ccc(C(=NN)c2ccc(C3=NNC(=O)CC3C)cc2)c(O)c1 (stereo not drawn) registered its melting point at 269 to 275 °C

====

Reported melting point values follow for various molecules

Known melting point results, listed for orientation:
>>> value_observed("CC1CC(=O)NN=C1c1ccc(NN=C(CCC(=O)O)c2ccc(O)cc2O)cc1 (centres unmarked)")
"299 to 302 °C"
>>> value_observed("CC1CC(=O)NN=C1c1ccc(NN=Cc2ccc(O)c([N+](=O)[O-])c2)cc1 (centres unmarked)")
"230 to 233 °C"
>>> value_observed("CC1CC(=O)NN=C1c1ccc(NN=Cc2ccccc2[N+](=O)[O-])cc1 (centres unmarked)")
"250 to 253 °C"
>>> value_observed("CC1CC(=O)NN=C1c1ccc(NN=Cc2ccc(Cl)cc2Cl)cc1 (centres unmarked)")
"252 to 254 °C"

The molecule identified as CC1CC(=O)NN=C1c1ccc(C(=NN)c2ccc(C#N)cc2)cc1 (centres unmarked) registered its melting point at 246 to 248 °C

====

Reported melting point values follow for various molecules

The molecule identified as CCC1CC(=O)NN=C1c1ccc(NN=Cc2ccc(O)cc2O)cc1 (stereo not drawn) [Example 36] registered its melting point at 270 to 275 °C

====

Reported melting point values follow for various compounds

Known melting point results, listed for orientation:
>>> value_observed("CC1CC(=O)NN=C1c1ccc(C(=NN)c2ccccc2C(=O)O)cc1 (stereo not drawn)")
"250 to 251 °C"
>>> value_observed("CC1CC(=O)NN=C1c1ccc(NN=C(CCCC(=O)O)c2ccc(O)cc2O)cc1 (stereo not drawn)")
"235 to 240 °C"
>>> value_observed("CC(=NNc1ccc(C2=NNC(=O)CC2C)cc1)c1ccc(O)c(C)c1O (stereo not drawn)")
"244 to 248 °C"

The compound identified as CCOC(=O)c1c(O)ccc(C(=NN)c2ccc(C3=NNC(=O)CC3C)cc2)c1O (stereo not drawn) registered its melting point at 203 to 208 °C

The compound identified as CC(=O)Nc1ccc(C(C)=NNc2ccc(C3=NNC(=O)CC3C)cc2)cc1 (stereo not drawn) registered its melting point at 145 to 155 °C

The compound identified as Cn1nc(-c2ccc(NN=Cc3ccc(O)cc3O)cc2)ccc1=O registered its melting point at 304 to 306 °C

The compound identified as CCc1c(O)ccc(C=NNc2ccc(-c3ccc(=O)n(C)n3)cc2)c1O registered its melting point at 262 to 266 °C

The compound identified as COc1ccc(C=NNc2ccc(C3=NNC(=O)CC3C)cc2)cc1 (stereo not drawn) registered its melting point at 172 to 174 °C

====

Reported melting point values follow for various compounds

>>> value_observed("CC1CC(=O)NN=C1c1ccc(NN=Cc2ccc(O)cc2)cc1 (centres unmarked)")
"258 to 261 °C"

The compound identified as COc1ccc(CCC(=NNc2ccc(C3=NNC(=O)CC3C)cc2)c2ccc(O)cc2O)cc1OC (centres unmarked) registered its melting point at 135 to 140 °C

The compound identified as COc1cccc(C=NNc2ccc(C3=NNC(=O)CC3C)cc2)c1O (centres unmarked) registered its melting point at 210 to 213 °C

The compound identified as CC1CC(=O)NN=C1c1ccc(C(=NN)c2cccc(C#N)c2)cc1 (centres unmarked) registered its melting point at 220 to 224 °C

The compound identified as Cn1nc(-c2ccc(NN=C(CCC(=O)O)c3ccc(O)cc3O)cc2)ccc1=O registered its melting point at 138 to 141 °C

The compound identified as COc1c(O)ccc(C(C)=NNc2ccc(C3=NNC(=O)CC3C)cc2)c1[N+](=O)[O-] (centres unmarked) registered its melting point at 251 to 254 °C

The compound identified as CC1CC(=O)NN=C1c1ccc(NN=Cc2ccccc2C(F)(F)F)cc1 (centres unmarked) registered its melting point at 113 to 115 °C

The compound identified as CC1CC(=O)NN=C1c1ccc(NN=Cc2cccc(O)c2)cc1 (centres unmarked) registered its melting point at 267 to 270 °C

====

ATTRIBUTE MEASURED: melting point

Known melting point results, listed for orientation:
>>> value_observed("CC1CC(=O)NN=C1c1ccc(NN=Cc2ccc([N+](=O)[O-])cc2)cc1 (stereo not shown) [Example 52]")
"216 to 217 °C"
>>> value_observed("CCCCc1c(O)ccc(C=NNc2ccc(C3=NNC(=O)CC3C)cc2)c1O (stereo not shown) [Example 44]")
"218 °C"
>>> value_observed("CCc1c(O)ccc(C=NNc2ccc(C3=NNC(=O)CC3C)cc2)c1O (stereo not shown) [Example 40]")
"238 to 240 °C"

Query compound follows.
The compound identified as O=c1[nH]nc(-c2ccc(NN=C(c3ccccc3)c3ccc(O)cc3O)cc2)c2ccccc12 [Example 15] registered its melting point at 160 to 170 °C
